- MEASURED_TARGET: human OX1R (Homo sapiens, UniProt O43613)
- Construct: expressed in transfected cells; host or cells: CHO (Chinese hamster ovary) cells, line CHOOX1R, co-expressing NFAT-luciferase
- Sequence (O43613 whole entry): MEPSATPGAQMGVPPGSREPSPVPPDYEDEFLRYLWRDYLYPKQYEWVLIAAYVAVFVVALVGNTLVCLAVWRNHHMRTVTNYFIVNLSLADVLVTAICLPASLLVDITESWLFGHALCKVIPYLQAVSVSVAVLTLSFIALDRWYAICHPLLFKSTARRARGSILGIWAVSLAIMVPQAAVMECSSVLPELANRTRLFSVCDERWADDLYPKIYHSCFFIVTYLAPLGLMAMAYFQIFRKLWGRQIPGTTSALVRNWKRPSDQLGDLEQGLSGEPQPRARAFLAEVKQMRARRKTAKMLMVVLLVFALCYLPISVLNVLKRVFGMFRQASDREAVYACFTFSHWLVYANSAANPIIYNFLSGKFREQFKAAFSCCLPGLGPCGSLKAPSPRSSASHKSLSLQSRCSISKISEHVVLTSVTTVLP
- MEASUREMENT_DESCRIPTION: Agonist activity against OX1R: intracellular calcium (Fura-2AM, FDSS7000) in CHOOX1R cells
- Assay type: cell-based
- COND: 0.1 μM test compound; relative to orexin-A as full agonist (100%)
PARAMETER: Response (%) OX1R

Record excerpt, results attached:
COMPOUND | Response (%) OX1R
COc1ccc(-c2cccc(C(=O)N(C)C)c2)cc1S(=O)(=O)Nc1cccc(NC(=O)c2cccc(Br)c2)c1 [Example 3] | 14%
COc1ccccc1Nc1cccc(NS(=O)(=O)c2cc(-c3cccc(C(=O)N(C)C)c3)ccc2OC)c1 [Example 31] | <5%
COc1ccc(-c2cccc(C(=O)N(C)C)c2)cc1S(=O)(=O)Nc1cccc(NC(=O)Nc2ccc(N(C)C)cc2)c1 [Example 39] | <5%

Consider the additional compound presented here.
Given item COc1ccc(-c2cccc(C(=O)N(C)C)c2)cc1S(=O)(=O)Nc1cccc(NC(=O)Nc2ccc(Br)cc2)c1 [Example 42] , the value recorded as its Response (%) OX1R is <5%
